// provenance: ChEMBL document CHEMBL1154040

Assay: Ratio of drug level in S180 tumor to muscleKM mouse at 240 to 370 kBq, iv after 120 mins
Assay type: ADME, organism-based, KM
Settings: in vivo, 2 h
Entries and their tumor/muscle ratio
// keep it numeric: no unit symbol after the value

Consider the following illustrative entries.
CC(C)[C@H](NC(=O)c1ccc([N+](=O)[O-])cc1[18F])C(=O)O ... 0.66
COC(=O)[C@@H](NC(=O)c1ccc([N+](=O)[O-])cc1[18F])C(C)C ... 0.54

Please turn your attention to the following entry.
Problem: Fill in reported tumor/muscle ratio for this entry: OC[C@H]1O[C@@H](O)[C@H]([18F])[C@@H](O)[C@@H]1O
Result: 2.2

----------
Entries and their tumor/brain ratio
Assay: Ratio of drug level in S180 tumor to brain KM mouse at 240 to 370 kBq, iv after 30 mins
Type: ADME, organism-based
Conditions: in vivo, 0.5 h
// keep it numeric: no unit symbol after the value

COC(=O)[C@@H](NC(=O)c1ccc([N+](=O)[O-])cc1[18F])C(C)C ... 7.06
CC(C)[C@H](NC(=O)c1ccc([N+](=O)[O-])cc1[18F])C(=O)O ... 13.3

Please turn your attention to the following entry.
Problem: Fill in reported tumor/brain ratio for this entry: OC[C@H]1O[C@@H](O)[C@H]([18F])[C@@H](O)[C@@H]1O
Result: 0.61

----------
Test: Ratio of drug level in S180 tumor to blood in KM mouse at 240 to 370 kBq, iv after 120 mins
Assay type: ADME, organism-based
Settings: tumour, 2 h
reported metric: tumor/blood ratio
// keep it numeric: no unit symbol after the value

Consider the following illustrative entries.
COC(=O)[C@@H](NC(=O)c1ccc([N+](=O)[O-])cc1[18F])C(C)C ... 1.67
OC[C@H]1O[C@@H](O)[C@H]([18F])[C@@H](O)[C@@H]1O ... 15.8

Please turn your attention to the following entry.
Problem: Fill in reported tumor/blood ratio for this entry: CC(C)[C@H](NC(=O)c1ccc([N+](=O)[O-])cc1[18F])C(=O)O
Result: 1.3

----------
Assay: Ratio of drug level in S180 tumor to muscleKM mouse at 240 to 370 kBq, iv after 60 mins
Type: ADME, organism-based, KM
Settings: in vivo, 1 h
reported metric: tumor/muscle ratio
// keep it numeric: no unit symbol after the value

COC(=O)[C@@H](NC(=O)c1ccc([N+](=O)[O-])cc1[18F])C(C)C ... 1.39
CC(C)[C@H](NC(=O)c1ccc([N+](=O)[O-])cc1[18F])C(=O)O ... 1.74

Problem: Fill in reported tumor/muscle ratio for this entry: OC[C@H]1O[C@@H](O)[C@H]([18F])[C@@H](O)[C@@H]1O
Result: 2.23
